Taken from ChEMBL document CHEMBL4033628.

inhibition values, listed per item
Molecular target: DNA topoisomerase 1 (Homo sapiens)
Test: Inhibition of recombinant human topoisomerase-1 assessed as decrease in relaxation of supercoiled pBR322 plasmid DNA at 20 uM after 30 mins by ethidium bromide staining based agarose gel electrophoresis relative to control
Value type: inhibition (%)

INSERT INTO measurements (compound, units, quantitative_readout) VALUES
  ('Oc1cccc(-c2cc(-c3ccccc3Cl)cc(-c3cccc(O)c3)n2)c1', '%', 0),
  ('Oc1cccc(-c2cc(-c3cccc(Cl)c3)cc(-c3cccc(O)c3)n2)c1', '%', 0),
  ('Oc1ccc(-c2cc(-c3cccc(Cl)c3)cc(-c3ccc(O)cc3)n2)cc1', '%', 0),
  ('Oc1cccc(-c2cc(-c3ccc(Cl)cc3)cc(-c3ccccc3O)n2)c1', '%', 41),
  ('Oc1cccc(-c2cc(-c3ccc(Cl)cc3)cc(-c3cccc(O)c3)n2)c1', '%', 18.4);

---

pIC50 values, listed per item
Test system: T47D
Assay: Antiproliferative activity against human T47D cells after 72 hrs by CCK8 assay
Type: functional, cell-based
pIC50: −log10 of the molar value.
Value type: pIC50

INSERT INTO assay_data (compound, result) VALUES
  ('COc1cc([C@@H]2c3cc4c(cc3[C@@H](O[C@@H]3O[C@@H]5CO[C@@H](C)O[C@H]5[C@H](O)[C@H]3O)[C@H]3COC(=O)[C@H]23)OCO4)cc(OC)c1O [ETOPOSIDE]', '5.16 to 5.49'),
  ('Oc1ccccc1-c1cc(-c2ccc(Cl)cc2)cc(-c2ccccc2O)n1', '< 4.30'),
  ('CC[C@@]1(O)C(=O)OCc2c1cc1n(c2=O)Cc2cc3ccccc3nc2-1 [CAMPTOTHECIN]', '5.41 to 5.68');

---

System: HCT-15
Assay: Antiproliferative activity against human HCT15 cells after 72 hrs by CCK8 assay
Assay type: functional, cell-based
Details: HCT-15, 72 h
pIC50: −log10 of the molar value.
Value type: pIC50

INSERT INTO measurements (compound, censoring_sign, quantitative_readout) VALUES
  ('Oc1ccccc1-c1cc(-c2ccccc2Cl)cc(-c2ccccc2O)n1', '=', 5.41),
  ('Oc1cccc(-c2cc(-c3ccc(Cl)cc3)cc(-c3cccc(O)c3)n2)c1', '=', 5.22),
  ('Oc1ccc(-c2cc(-c3cccc(Cl)c3)cc(-c3ccccc3O)n2)cc1', '=', 5.78),
  ('Oc1ccc(-c2cc(-c3ccccc3Cl)cc(-c3ccc(O)cc3)n2)cc1', '=', 5.29),
  ('Oc1ccc(-c2cc(-c3cccc(Cl)c3)cc(-c3cccc(O)c3)n2)cc1', '=', 5.37),
  ('Oc1ccc(-c2cc(-c3ccc(Cl)cc3)cc(-c3ccccc3O)n2)cc1', '<', 4.30),
  ('Oc1cccc(-c2cc(-c3ccc(Cl)cc3)cc(-c3ccccc3O)n2)c1', '=', 5.33),
  ('Oc1cccc(-c2cc(-c3ccccc3Cl)cc(-c3ccccc3O)n2)c1', '=', 5.38),
  ('Oc1cccc(-c2cc(-c3cccc(Cl)c3)cc(-c3cccc(O)c3)n2)c1', '=', 5.46),
  ('Oc1ccc(-c2cc(-c3ccc(Cl)cc3)cc(-c3ccc(O)cc3)n2)cc1', '=', 5.31),
  ('Oc1cccc(-c2cc(-c3cccc(Cl)c3)cc(-c3ccccc3O)n2)c1', '=', 5.66);

---

Molecular target: DNA topoisomerase 2-alpha (Homo sapiens) (UniProt P11388)
Sequence (P11388 whole entry): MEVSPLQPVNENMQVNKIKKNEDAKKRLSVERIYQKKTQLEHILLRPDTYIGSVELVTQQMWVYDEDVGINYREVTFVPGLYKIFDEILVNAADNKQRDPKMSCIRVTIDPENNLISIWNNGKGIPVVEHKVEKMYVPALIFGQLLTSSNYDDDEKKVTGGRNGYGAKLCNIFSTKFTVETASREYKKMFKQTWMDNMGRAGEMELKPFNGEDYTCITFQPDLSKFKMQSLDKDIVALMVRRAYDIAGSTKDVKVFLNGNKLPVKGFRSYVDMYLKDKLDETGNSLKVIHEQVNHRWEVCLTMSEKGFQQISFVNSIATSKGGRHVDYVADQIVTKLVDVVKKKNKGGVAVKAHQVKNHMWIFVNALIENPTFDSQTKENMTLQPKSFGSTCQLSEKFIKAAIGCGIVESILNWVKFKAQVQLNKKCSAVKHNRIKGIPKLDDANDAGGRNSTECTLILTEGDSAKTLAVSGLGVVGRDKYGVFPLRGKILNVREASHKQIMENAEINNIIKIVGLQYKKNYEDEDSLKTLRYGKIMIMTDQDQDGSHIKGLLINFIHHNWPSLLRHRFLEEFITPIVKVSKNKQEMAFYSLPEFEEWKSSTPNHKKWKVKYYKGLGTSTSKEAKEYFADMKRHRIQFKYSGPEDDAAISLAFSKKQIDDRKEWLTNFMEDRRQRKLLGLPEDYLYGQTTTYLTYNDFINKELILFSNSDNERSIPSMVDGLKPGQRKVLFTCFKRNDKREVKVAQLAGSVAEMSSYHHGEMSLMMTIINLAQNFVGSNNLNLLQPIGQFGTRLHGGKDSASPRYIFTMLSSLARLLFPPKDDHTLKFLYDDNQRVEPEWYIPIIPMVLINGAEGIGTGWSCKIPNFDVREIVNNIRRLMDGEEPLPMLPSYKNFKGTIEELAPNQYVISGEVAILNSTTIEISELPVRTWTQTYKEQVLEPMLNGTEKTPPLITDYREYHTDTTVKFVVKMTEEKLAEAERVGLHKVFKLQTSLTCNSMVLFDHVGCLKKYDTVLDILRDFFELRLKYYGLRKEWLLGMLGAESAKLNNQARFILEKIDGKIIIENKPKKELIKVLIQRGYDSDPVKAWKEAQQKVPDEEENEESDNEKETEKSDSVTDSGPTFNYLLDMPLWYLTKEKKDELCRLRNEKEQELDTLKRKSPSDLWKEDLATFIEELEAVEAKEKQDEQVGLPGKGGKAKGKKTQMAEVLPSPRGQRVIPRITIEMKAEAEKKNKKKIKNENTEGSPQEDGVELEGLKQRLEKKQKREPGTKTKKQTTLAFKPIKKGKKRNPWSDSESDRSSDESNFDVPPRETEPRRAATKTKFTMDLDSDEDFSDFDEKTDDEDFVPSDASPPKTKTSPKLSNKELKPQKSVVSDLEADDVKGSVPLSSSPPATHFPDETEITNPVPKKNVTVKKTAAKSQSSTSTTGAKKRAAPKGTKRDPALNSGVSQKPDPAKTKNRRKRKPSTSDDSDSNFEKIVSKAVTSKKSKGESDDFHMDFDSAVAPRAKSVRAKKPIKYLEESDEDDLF
Experiment: Inhibition of human topoisomerase-2 alpha assessed as decrease in relaxation of supercoiled pBR322 plasmid DNA at 100 uM after 30 mins by ethidium bromide staining based agarose gel electrophoresis relative to etoposide
Value type: fold change (FC)

INSERT INTO assay_data (compound, tested_target, result) VALUES
  ('Oc1cccc(-c2cc(-c3ccccc3Cl)cc(-c3ccccc3O)n2)c1', 'DNA topoisomerase 2-alpha (Homo sapiens) (UniProt P11388)', '< 0.1'),
  ('Oc1ccc(-c2cc(-c3ccc(Cl)cc3)cc(-c3cccc(O)c3)n2)cc1', 'DNA topoisomerase 2-alpha (Homo sapiens) (UniProt P11388)', 0.99),
  ('Oc1cccc(-c2cc(-c3cccc(Cl)c3)cc(-c3ccccc3O)n2)c1', 'DNA topoisomerase 2-alpha (Homo sapiens) (UniProt P11388)', '< 0.1');

---

Ratio IC50 values, listed per item
Tested on: T47D
Experiment: Potency index, ratio of camptothecin IC50 to compound IC50 for human T47D cells
Format: functional
Value type: Ratio IC50

INSERT INTO results (compound, result) VALUES
  ('Oc1cccc(-c2cc(-c3ccccc3)cc(-c3ccccc3O)n2)c1', '<0.08'),
  ('Oc1ccc(-c2cc(-c3ccc(Cl)cc3)cc(-c3ccccc3O)n2)cc1', '<0.04'),
  ('Oc1ccccc1-c1cc(-c2cccc(Cl)c2)cc(-c2ccccc2O)n1', '<0.04'),
  ('Oc1ccccc1-c1cc(-c2ccc(Cl)cc2)cc(-c2ccccc2O)n1', '<0.04'),
  ('Oc1ccc(-c2cc(-c3cccc(Cl)c3)cc(-c3ccccc3O)n2)cc1', '<0.04');

---

IC50 values, listed per item
Test system: HCT-15
Experiment: Antiproliferative activity against human HCT15 cells after 72 hrs by CCK8 assay
Assay type: functional, cell-based
Conditions: HCT-15, 72 h
Counter-ions that a name gives are not always drawn.
Value type: IC50

INSERT INTO results (compound, result) VALUES
  ('CC[C@@]1(O)C(=O)OCc2c1cc1n(c2=O)Cc2cc3ccccc3nc2-1', '260 to 12000 nM'),
  ('COc1cccc2c1C(=O)c1c(O)c3c(c(O)c1C2=O)C[C@@](O)(C(=O)CO)C[C@@H]3O[C@H]1C[C@H](N)[C@H](O)[C@H](C)O1 [DOXORUBICIN HYDROCHLORIDE]', '1280 to 1820 nM'),
  ('COc1cc([C@@H]2c3cc4c(cc3[C@@H](O[C@@H]3O[C@@H]5CO[C@@H](C)O[C@H]5[C@H](O)[C@H]3O)[C@H]3COC(=O)[C@H]23)OCO4)cc(OC)c1O [ETOPOSIDE]', '1330 to 5290 nM');
